# target.desc: CDK4/CyclinD1 (h) (Homo sapiens, UniProt P11802)
# Sequence (P11802 whole entry): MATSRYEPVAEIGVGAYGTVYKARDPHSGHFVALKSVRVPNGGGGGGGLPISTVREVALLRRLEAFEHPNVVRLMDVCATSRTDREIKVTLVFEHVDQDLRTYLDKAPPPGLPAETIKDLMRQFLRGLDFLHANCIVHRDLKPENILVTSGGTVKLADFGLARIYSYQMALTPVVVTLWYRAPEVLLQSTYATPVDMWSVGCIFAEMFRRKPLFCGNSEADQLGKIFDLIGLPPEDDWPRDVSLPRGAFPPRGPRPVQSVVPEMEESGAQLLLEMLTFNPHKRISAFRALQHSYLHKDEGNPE
# Sequence (P24385 whole entry partner): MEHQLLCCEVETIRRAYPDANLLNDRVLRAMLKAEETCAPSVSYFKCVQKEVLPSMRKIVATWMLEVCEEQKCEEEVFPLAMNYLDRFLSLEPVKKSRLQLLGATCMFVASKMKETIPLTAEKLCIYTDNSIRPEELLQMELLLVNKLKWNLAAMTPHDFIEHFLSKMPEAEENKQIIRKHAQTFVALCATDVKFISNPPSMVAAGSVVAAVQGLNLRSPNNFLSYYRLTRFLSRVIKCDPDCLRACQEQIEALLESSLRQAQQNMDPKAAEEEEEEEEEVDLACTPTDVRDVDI
# assay.info: CDK4/CyclinD1 human kinase inhibition, SPA with GST-pRb substrate
# Assay type: biochemical
# experimental.context: read-out: CDK4 pIC50 (converted)
I'd be grateful if you could share measured IC50 for these entries.
Please give a number only; it is taken to be in µM.

The recorded IC50 for O=C1NCc2cc(ccc2N2CCOCC2)Nc2nccc(n2)-c2cccc(c2)CCN2CCC[C@@H]12 is 0.427

Value of IC50 reported for the molecule CN1CCC(NC(=O)c2ccc3cc2CN2CCC[C@H]2C(=O)NCc2cccc(c2)-c2ccnc(n2)N3)CC1 is 1.2

Entry O=C1NCCCc2cc(ccn2)-c2ccnc(n2)Nc2cccc(c2)CN[C@H]1CO , IC50 reported as 1.26

IC50 reported for this molecule CN(C)C(=O)c1cc2cc(c1)Nc1nccc(n1)-c1cccc(c1)CNC(=O)[C@@H]1CCCN1C2 : 1.35

Lookup result for CC(C)Nc1cc2cc(c1)Nc1nccc(n1)-c1ccc(cc1)CN(C)CCNC(=O)C1CCN(CC1)C2 ; measured IC50: 7.41

Sure, the documented IC50 for C[C@@H]1NCc2cc(ccc2N2CCOCC2)Nc2nccc(n2)-c2ccc(cc2)OCCCNC1=O is 1.29

GET /value?item= C[C@@H]1NCc2cc(ccc2N2CCOCC2)Nc2nccc(n2)-c2cccc(c2)CNC1=O &field=IC50 returns 6.03

Quick note, IC50 for O=C1NCc2cccc(c2)-c2ccnc(n2)Nc2cc(ccc2Cl)CN[C@H]1Cc1ccccc1 landed at 5.75

Lab book: IC50 of O=C1NCc2cccc(c2)-c2ccnc(n2)Nc2cccc(c2)CN2C[C@@H](O)C[C@@H]12 noted as 0.933

Summary for this molecule, CN1CCN(Cc2cc3cc(c2)Nc2nccc(n2)-c2cccc(c2)CNC(=O)[C@@H]2CCCN2C3)CC1 : IC50 is 1.66

Reported IC50 for COc1ccc2cc1CN1CCC(CC1)C(=O)N(C)CCN(C)c1ccc(cn1)-c1ccnc(n1)N2 was 1.91

// IC50 lookup, molecule = O=C1NCCCOc2ccc(cc2)-c2ccnc(n2)Nc2ccc(N3CCOCC3)c(c2)CN2CCC1CC2 , result: 0.891

Kindly note the recorded IC50 for COCCNC(=O)c1ccc2cc1CN1CCC[C@H]1C(=O)NCc1cccc(c1)-c1ccnc(n1)N2 , which is 1.62

----------
# System: MDA-MB-231
# assay.info: Cellular proliferation assay (Alamar blue), MDA-MB-231
# Type: cell-based
# experimental.context: Homo sapiens, 10% FCS, 72 hours with compound, Alamar blue 24 h, read-out: MDA/MB231 (cellular proliferation assay, Table 4) (converted)
property.measured: IC50

Field IC50 (entry COc1ccc2cc1CN(C)CCCNC(=O)[C@@H]1CCCN1Cc1cc(cc(N3CCOCC3)c1)Nc1nccc-2n1 ) reads > 10 µM

Form field IC50, entry COc1cc2cc(c1)Nc1nccc(n1)-c1ccc(cc1)CN(C)CCNC(=O)[C@H](CO)NC2 : > 10 µM

// recorded IC50 for COc1ccc2cc1CN(C)CCCNC(=O)C1CCN(CC1)Cc1cc(Br)cc(c1)Nc1nccc-2n1 : 6.76 µM

Reported IC50 ( COc1ccc2cc1CN(C)CCNC(=O)C1CCN(CC1)Cc1cc(cc(N3CCOCC3)c1)Nc1nccc-2n1 ) = > 10 µM

According to the records, this molecule COc1cc2cc(c1)Nc1nccc(n1)-c1ccc(OC)c(c1)CN(C)CCCNC(=O)C1CCN(CC1)C2 displays IC50 of > 10 µM

Reported IC50 for CN1CCC(NC(=O)c2cc3cc(c2)Nc2nccc(n2)-c2cccc(c2)CNC(=O)[C@@H]2CCCN2C3)CC1 was 6.31 µM

The reported IC50 of the molecule CN1CCN(Cc2cc3cc(c2)Nc2nccc(n2)-c2cccc(c2)CNC(=O)[C@@H]2CCCN2C3)CC1 was 1.62 µM

Entry COc1ccc2cc1CN(C)CCCNC(=O)C1CCN(CC1)Cc1cc(cc(N3CCOCC3)c1)Nc1nccc-2n1 ; IC50 = > 10 µM

get_value(item= COc1cc2cc(c1)Nc1nccc(n1)-c1ccc(cc1)CN(C)CCCNC(=O)CN1CCN(CC1)C2 , readout=IC50) returns > 10 µM

Input O=C1NCc2cccc(c2)-c2ccnc(n2)Nc2cccc(c2)CN[C@H]1Cc1ccccc1 . Output IC50: > 10 µM

Consider O=C1NCc2cccc(c2)-c2ccnc(n2)Nc2cc(ccc2Cl)CN[C@H]1CO . Its measured IC50 is > 10 µM

Entry O=C1NCc2cccc(c2)-c2ccnc(n2)Nc2ccc(N3CCOCC3)c(c2)CN2CCC1CC2 , IC50 reported as > 10 µM

IC50 recorded for this molecule, COc1ccc2cc1CN(C)CCCNC(=O)[C@@H]1CCCN1Cc1cc(NCCc3ccccc3)cc(c1)Nc1nccc-2n1 , is 6.46 µM

Entry under test: COc1cc2cc(c1)Nc1nccc(n1)-c1ccc(cc1)CN(C)CCNC(=O)CN1CCN(CC1)C2 . Its IC50 was > 10 µM

get_value(item= COc1ccc2cc1CN1CCN(CC1)CC(=O)N(C)CCN(C)c1ccc(cn1)-c1ccnc(n1)N2 , readout=IC50) returns > 10 µM

----------
# target.desc: UniProt:O00444
# assay.info: PLK-4 human kinase inhibition, scintillation proximity assay (SPA)
# Type: biochemical
# experimental.context: read-out: PLK4 pIC50 (converted)
Note to self: use rule met only for IC50 readings below 1000 nM; a reading exactly at 1000 nM still gets rule not met.

Problem: For the compound COc1cc2cc(c1)Nc1nccc(n1)-c1ccc(cc1)CN(C)CCCNC(=O)[C@@H]1CCCN1C2 [Compound 156] , is IC50 under 1000 nM?
rule met

# strict comparison: is reported IC50 < 1000 nM? input = O=C1NCc2cccc(c2)-c2ccnc(n2)Nc2cc(cc(C(=O)N3CCOCC3)c2)CN2CCC[C@@H]12 [Compound 32]
rule met

Given O=C1CN2CCN(CC2)Cc2cc(ccc2N2CCOCC2)Nc2nccc(n2)-c2ccc(cc2)CNCCN1 [Compound 125] , is recorded IC50 strictly lower than 1000 nM?
rule met

Here's an entry: O=C1NCCCOc2cccc(c2)-c2ccnc(n2)Nc2ccc(N3CCOCC3)c(c2)CN2C[C@H](O)C[C@@H]12 [Compound 99] . Is its IC50 below 1000 nM?
rule not met

State whether 1000 nM exceeds IC50 recorded for COc1ccc2cc1CN(C)CCNC(=O)CN1CCN(CC1)Cc1cc(cc(N3CCOCC3)c1)Nc1nccc-2n1 [Compound 145] .
rule not met

Find out if reported IC50 for O=C1CN2CCN(CC2)Cc2cc(ccc2N2CCOCC2)Nc2nccc(n2)-c2ccc(cc2)CN1 [Compound 194] is less than 1000 nM
rule not met

----------
# target.desc: PLK4 (h) (Homo sapiens, UniProt O00444)
# Sequence (O00444 whole entry): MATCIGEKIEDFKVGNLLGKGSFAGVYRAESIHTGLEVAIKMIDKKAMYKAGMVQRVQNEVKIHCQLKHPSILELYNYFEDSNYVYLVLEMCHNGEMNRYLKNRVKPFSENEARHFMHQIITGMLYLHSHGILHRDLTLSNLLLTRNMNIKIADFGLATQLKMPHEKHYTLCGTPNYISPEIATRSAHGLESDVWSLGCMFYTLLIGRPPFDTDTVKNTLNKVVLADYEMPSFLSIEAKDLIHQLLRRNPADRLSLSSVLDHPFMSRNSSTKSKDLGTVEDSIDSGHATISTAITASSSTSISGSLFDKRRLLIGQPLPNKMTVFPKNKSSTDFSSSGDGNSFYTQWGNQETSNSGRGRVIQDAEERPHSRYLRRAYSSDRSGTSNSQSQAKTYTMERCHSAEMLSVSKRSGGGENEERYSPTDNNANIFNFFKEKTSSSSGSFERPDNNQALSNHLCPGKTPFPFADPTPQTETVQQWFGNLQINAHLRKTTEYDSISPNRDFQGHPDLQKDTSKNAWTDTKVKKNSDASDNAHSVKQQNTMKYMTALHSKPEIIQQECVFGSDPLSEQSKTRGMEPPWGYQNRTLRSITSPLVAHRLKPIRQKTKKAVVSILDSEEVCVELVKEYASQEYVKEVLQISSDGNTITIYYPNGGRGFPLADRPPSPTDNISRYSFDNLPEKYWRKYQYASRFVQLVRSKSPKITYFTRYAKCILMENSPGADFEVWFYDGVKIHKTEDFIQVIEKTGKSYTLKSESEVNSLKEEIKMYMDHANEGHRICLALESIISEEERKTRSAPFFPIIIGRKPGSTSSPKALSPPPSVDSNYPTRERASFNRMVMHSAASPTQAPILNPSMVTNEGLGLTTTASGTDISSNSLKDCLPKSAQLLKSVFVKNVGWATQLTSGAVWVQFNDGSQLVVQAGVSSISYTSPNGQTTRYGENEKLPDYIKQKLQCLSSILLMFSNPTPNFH
# assay.info: PLK-4 human kinase inhibition, scintillation proximity assay (SPA)
# Assay type: biochemical
# experimental.context: read-out: PLK4 pIC50 (converted)
Would you kindly list IC50 for each of these molecules?
Reply with just the number (in nM).

Record CC(C)Nc1cc2cc(c1)Nc1nccc(n1)-c1ccc(cc1)CN(C)CCNC(=O)[C@@H]1CCCN1C2 / PLK4 (h) (Homo sapiens, UniProt O00444), IC50 recorded as 776

Fill in: PLK4 (h) (Homo sapiens, UniProt O00444) IC50 for CN1CCCNC(=O)[C@@H]2CCCN2Cc2cc(Br)cc(c2)Nc2nccc(n2)-c2ccc(cc2)C1 = 1480

O=C1NCCCOc2cccc(c2)-c2ccnc(n2)Nc2ccc(N3CCOCC3)c(c2)CN[C@H]1Cc1ccccc1 on PLK4 (h) (Homo sapiens, UniProt O00444) gives IC50 = 1410

Measured IC50 for this entry COc1ccc2cc1CN(C)CCNC(=O)C1CCN(CC1)Cc1cc(cc(NC(C)C)c1)Nc1nccc-2n1 on PLK4 (h) (Homo sapiens, UniProt O00444): 3090

Form field, IC50 with PLK4 (h) (Homo sapiens, UniProt O00444), item COc1ccc2cc1CN(C)CCCNC(=O)[C@@H]1CCCN1Cc1cc(NCCc3ccccc3)cc(c1)Nc1nccc-2n1 : 3550

Let me check: CN1CCNC(=O)CN2CCN(CC2)Cc2cc(cc(N3CCOCC3)c2)Nc2nccc(n2)-c2ccc(cc2)C1 , system PLK4 (h) (Homo sapiens, UniProt O00444), measured IC50 is 1740

The molecule COc1ccc2cc1CN(C)CCNC(=O)[C@@H]1CCCN1Cc1cc(cc(NC(C)C)c1)Nc1nccc-2n1 , tested on PLK4 (h) (Homo sapiens, UniProt O00444), showed IC50 of 2820

Lab note: molecule COc1ccc2cc1CN(C)CCNC(=O)[C@@H]1CCCN1Cc1cc(NCCc3ccccc3)cc(c1)Nc1nccc-2n1 tested on PLK4 (h) (Homo sapiens, UniProt O00444); recorded IC50 was 2450

Simply: COc1ccc2cc1CN(C)CCCNC(=O)CN1CCN(CC1)Cc1cc(cc(NC(C)C)c1)Nc1nccc-2n1 , PLK4 (h) (Homo sapiens, UniProt O00444), IC50 = 1230

// assay PLK4 (h) (Homo sapiens, UniProt O00444), entry COc1cc2cc(c1)Nc1nccc(n1)-c1ccc(OC)c(c1)CN(C)CCCNC(=O)[C@@H]1CCCN1C2 , IC50 value = 5010

The molecule O=C1NCCNCc2ccc(cc2)-c2ccnc(n2)Nc2ccc(N3CCOCC3)c(c2)CN[C@H]1Cc1ccccc1 , when measured on PLK4 (h) (Homo sapiens, UniProt O00444), yielded IC50 of 2240

Record CC(C)Nc1cc2cc(c1)Nc1nccc(n1)-c1ccc(cc1)CN(C)CCCNC(=O)C1CCN(CC1)C2 has PLK4 (h) (Homo sapiens, UniProt O00444) IC50 equal to 1230
